system: HCC-2998; settings: read-out: Median Lethal Concentration (LC50); Colon Cancer, HCT-2998; 48 hours, SRB assay
metric: CC50 (µM)
Give the value, in units of µM, as a plain number.

Ask: Need CC50, item O=C1C(=Cc2ccccc2O)COCC1=Cc1ccccc1O
Result: 5.3

====

tested on: RXF 393; details: read-out: Median Lethal Concentration (LC50); Renal Cancer, RXF 393; 48 hours, SRB assay
metric: CC50
Please state the value followed by its unit.

Ask: For the molecule shown here, O=C1C(=Cc2ccccc2O)COCC1=Cc1ccccc1O [EF25] , give the reported CC50.
Result: 4.6 µM
